Tested on: HOP-92 NSCLC
Experiment: NCI-60 one-dose screen, 48 h (100 = growth as untreated, 0 = no growth, -100 = all killed)
Settings: 10 µM unless noted
Procedure: Growth inhibition of the HOP-92 human Non-Small Cell Lung tumor cell line is measured as a screen for anti-cancer activity. Cells are grown in 96 well plates and exposed to the test compound for 48 hours. Compounds are tested at a single concentration, which is 10^-5 M for most compounds. The reported endpoint is percent growth (GI% or GIPRCNT), where numbers from 0 - 100% represent growth inhibition, and numbers from -100% - 0 represent cell death. […]
The panel holds about 83,000 compounds, 20% with a hit somewhere; the sample as a whole holds those more often. Activity calls are given as the source filed them. Rule for the calls: active = growth percent below 10; inactive = the rest.
Measured growth accompanies every entry in the list below.

In the examples that follow, each entry is paired with its recorded growth.
O=C(Cc1ccccc1)Nc1nnc(NC2CCN(c3nnc(NC(=O)Cc4ccccc4)s3)CC2)s1 = 94.5% (inactive)
COc1cc2c(Oc3ccc(NC(=O)C4(C(=O)Nc5ccc(F)cc5)CC4)cc3F)ccnc2cc1OCCCN1CCOCC1 = -58.2% (active)
CC(C)(O)CC(=O)NCCn1ccc2ncnc(Nc3ccc(Oc4cccc(C(F)(F)F)c4)c(Cl)c3)c21 = -23.1% (active)
Cc1cc(N(CCNc2ccnc3cc(Cl)ccc23)Cc2ccc3c(c2)OCO3)nc(N2CCN(C)CC2)n1 = -10.2% (active)
C=C1C(=O)O[C@H]2[C@H]1CC/C(C=Nc1c(N)cc(C(F)(F)F)cc1C(F)(F)F)=C\CC[C@@]1(C)O[C@@H]21 = -39.9% (active)

Measured growth, C#Cc1cccc(Nc2ncnc3cc4c(cc23)OCCOCCOCCO4)c1 : 49.4% (inactive)

Measured growth, Fc1ccc(NCc2cn(-c3ccccc3)nc2-c2ccc(OCc3ccccc3)cc2)cc1Cl : 91.2% (inactive)

Measured growth, OCCNC(=S)Nc1ccc(-c2nc(N3C[C@H]4CC[C@@H](C3)O4)c3cccn3n2)cc1 : -21.2% (active)

Measured growth, CCN1CCN(c2cc(C)nc(N(CCCNc3ccnc4cc(Cl)ccc34)Cc3cccs3)n2)CC1 : 11.6% (inactive)

Measured growth, CC(=O)c1c(C)c2cnc(Nc3ccc(N4CCNCC4)cn3)nc2n(C2CCCC2)c1=O : 66% (inactive)

Measured growth, COc1cc(F)c(F)c(Nc2ccc(I)cc2F)c1NS(=O)(=O)C1(C[C@H](O)CO)CC1 : -19.1% (active)

Measured growth, CC(=O)NCC(=O)N1[C@@H]2CC[C@H]1c1ccc(Nc3ncc(C(F)(F)F)c(NC4CCC4)n3)cc12 : -1.13% [2.5 µM] (active)

Measured growth, CC1CCC(n2cnc3c(Cl)ncnc32)O1 (centres undefined) : 75.5% (inactive)

Measured growth, COc1cc2c(cc1OCCCN1Cc3ccc(OCCCCC(=O)N4CCC(CCN5CCCC5)CC4)cc3C1)N=C(N)C21CCCC1 : 78.7% (inactive)

Measured growth, Cn1cnc2c(F)c(Nc3ccc(Br)cc3Cl)c(C(=O)NOCCO)cc21 : -0.548% (active)

Measured growth, Cc1cc(N(CCNc2ccnc3cc(Cl)ccc23)Cc2cccs2)nc(Cl)n1 : -27.9% (active)
